- target or test system: Beta-2 adrenergic receptor (Homo sapiens) (UniProt P07550)
- Sequence (P07550 whole entry, looked up): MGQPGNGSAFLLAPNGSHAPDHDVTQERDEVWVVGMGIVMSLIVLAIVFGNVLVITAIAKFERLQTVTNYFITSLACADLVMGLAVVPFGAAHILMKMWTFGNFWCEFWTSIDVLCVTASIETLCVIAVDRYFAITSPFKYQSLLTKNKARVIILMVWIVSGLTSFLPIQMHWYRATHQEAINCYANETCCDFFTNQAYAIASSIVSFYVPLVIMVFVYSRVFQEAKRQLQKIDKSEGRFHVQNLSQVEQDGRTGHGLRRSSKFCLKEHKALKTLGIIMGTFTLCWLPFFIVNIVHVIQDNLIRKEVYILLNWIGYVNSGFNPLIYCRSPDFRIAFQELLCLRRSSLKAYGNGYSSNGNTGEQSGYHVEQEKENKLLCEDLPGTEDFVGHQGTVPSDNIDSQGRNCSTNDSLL
- protocol details: agonist-induced loss of surface beta2AR – cell-based, FAP fluorogen, flow cytometry, validation set, pilot screen (AID 504459);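 further: agonist-driven loss of surface beta2AR via internalization measured by FAP dye flow cytometry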
- run parameters: Am2.2-beta2AR cells, at 10 µM, active compounds read high
metric name: response (%)
Express it in %; write the number only.

Example results:
                           compound_smiles  value_reported
0  C=CCNc1nc2c(c(=O)n(C)c(=O)n2C)n1CC(=C)C           -5.19
1   Cc1nc(-c2coc3c(CN(C)C)c(O)ccc3c2=O)cs1            4.53

// field: response; key: `CN(C)CCOCCOc1ccc(Cl)cc1Br` ; value = -10

---

- protocol details: AML differentiation inducers, ER-HoxA9 marrow cells – cell-based, GFP/MAC1 double positive, flow cytometry, validation set, primary screen (AID 588685);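 further: compound exposure lasts four days before antibody staining and flow analysis; 0% = DMSO wells and 100% = 5 µM fulvestrant positive control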
- run parameters: active compounds read high, normalized: vehicle 0, fulvestrant 100
Listed molecules paired with reported differentiation response
Express it in %; write the number only.

>>> print(df.to_string())
                                   molecule  value_reported
0            COc1cc2c(cc1OC)C(=S)NC(C)(C)C2            6.11
1  CC(C)NS(=O)(=O)c1ccc(OCC(=O)Nc2cccc(F)c2)cc1           -10.4
2               NC(N)=NC(=O)Cc1c(Cl)cccc1Cl           -2.69
3  CCN(CCCCOC(=O)c1ccc(OC)c(OC)c1)C(C)Cc1ccc(OC)cc1 (stereo unspecified)           -5.97
4          COc1ccc(-c2csc(-c3cccnc3)n2)cc1C               4
5      Cc1ccc(S(=O)(=O)NC(=O)NN2CCCCCC2)cc1            14.9
6         N#C/C(=C/c1ccccc1)C(=O)NCc1ccccc1           -18.4
7  CC(C)(Oc1ccc(CCNC(=O)c2ccc(Cl)cc2)cc1)C(=O)O            8.06

// field: differentiation response; key: CCOC(=O)C1CCCN(Cc2nc(Cc3cccc(F)c3)no2)C1 (stereo unspecified) ; value = 8.59

// field: differentiation response; key: `CC(=O)Nc1ccc(S(=O)(=O)c2ccc(N)cc2)cc1` ; value = 9.01

// field: differentiation response; key: CC12CCC(C(=O)NNc3ccccc3)(C(=O)C1=O)C2(C)C (stereo unspecified) ; value = 15.2

// field: differentiation response; key: CC[N+]1(C)CC2CCC(C)(C1)C2(C)C (stereo unspecified) ; value = -21.6

// field: differentiation response; key: `NNC(=O)c1ccncc1` ; value = -2.4

// field: differentiation response; key: `Cc1ccc2c(CC(=O)O)coc2c1` ; value = 0.24

// field: differentiation response; key: CCOC(=O)C1=C(N)Oc2c(c(=O)[nH]c3ccccc23)C1c1ccccc1 (stereo unspecified) ; value = -0.8

// field: differentiation response; key: `O=C1CC2(CCCC2)CC(=O)N1CCCCN1CCN(c2ncccn2)CC1` ; value = 12

// field: differentiation response; key: `O=C(Cc1c[nH]c2ccccc12)OCCOC(=O)Cc1c[nH]c2ccccc12` ; value = -4.57

// field: differentiation response; key: `O=C(O)CCCCCCNC(=O)c1cncc(O)c1` ; value = -4

// field: differentiation response; key: `Cc1nc(N)nc2c1CCCC2` ; value = -9.83

// field: differentiation response; key: `Cc1ccnc2c1NC(=O)c1cccnc1N2C1CC1` ; value = 2.2

// field: differentiation response; key: COc1ccc(C2NCCC3(O)CCCCC23)c(OC)c1OC (stereo unspecified) ; value = -18.4

// field: differentiation response; key: `O=c1cc(-c2ccccc2)oc2cc(OCc3ccccc3)cc(O)c12` ; value = 5.73

// field: differentiation response; key: `CC(=O)[C@H]1[C@H](C#N)C[C@H]2[C@@H]3CC=C4C[C@@H](O)CC[C@]4(C)[C@H]3CC[C@@]21C` ; value = -3.28
